// values below are reported GI50
# Test system: SF-295 CNS
# TEST DETAILS: NCI tumour cell line growth inhibition, 48 h
MEASURED ATTRIBUTE: GI50

>>> value_measured("Cc1ccc(-n2c(-c3ccc(Cl)cc3)cs/c2=N\\NC(=O)COc2n[nH]c(=O)c3ccccc23)cc1")
"19.7 µM"
>>> value_measured("C1C[OH+]CC[OH+]CC[OH+]CC[OH+]CC[OH+]CC[OH+]1.[Cl-].[Ta+5]")
"> 100 µM"
>>> value_measured("CCC(C)CC(CC)NCCN1CCN(C(CC)CC(C)CC)C1=S (centres undefined)")
"1.86 µM"
>>> value_measured("C#CC#CC#CC#CC#CC#CC#CC#CCC1OC[C@H](COC(=O)O[C@@H](C(=O)O[C@H]2C[C@@]3(O)[C@@H](OC(=O)c4ccccc4)[C@@H]4[C@]5(OC(C)=O)CO[C@@H]5C[C@H](O)[C@@]4(C)C(=O)[C@H](OC(C)=O)C(=C2C)C3(C)C)[C@@H](NC(=O)c2ccccc2)c2ccccc2)O1 (some centres undefined)")
"1.01 µM"
>>> value_measured("C=C1C(=O)O[C@H]2[C@H]1CC/C(COC(=O)C(=O)c1cn(C)c3ccc(OC)cc13)=C\\CC[C@@]1(C)O[C@@H]21")
"9.35 µM"
>>> value_measured("Nc1nc(Nc2ccc3c(c2)CCC(N2CCCC2)CC3)nn1-c1cc2c(nn1)-c1ccccc1CCC2 (centres undefined)")
"1.85 µM"
>>> value_measured("CC(C)c1ccc(O)c(=O)cc1")
"7.57 µM"
>>> value_measured("CN1CCN(c2cc(Nc3cc(C4CC4)[nH]n3)nc(Nc3ccc(CC(=O)NCc4cccc(F)c4)cc3)n2)CC1")
"1.99 µM"
>>> value_measured("O=C(Nc1ccccc1F)c1ccc(NC2=C(Cl)C(=O)N(Cc3ccccc3)C2=O)cc1")
"10.7 µM"
